target: human tau(pS422) (Homo sapiens, UniProt P10636, S739X); assay: BIAcore kinetic screening and kinetic rates of humanized VH/VL combinations; format: binding; conditions: 25 °C; VL17 or VL19 with VH variants
experimental_readout: kd (s⁻¹)
Dear colleague, please return just the value in s⁻¹, with no unit written.

VL17 with VH01: anti-human tau(pS422) antibody; VH SEQ ID NO: 46, VL SEQ ID NO: 37 (antibody, V domains shown, humanized sequence) VH: QQLVESGGGLVQPGGSLRLSCAASGFSLSSNAINWVRQAPGKGLEWVGYIAVSGNTYYASWAKGRFTISRDNSKNTLYLQMNSLRAEDTAVYYCGKSNIWGQGTLVTVSS VL: DIQMTQSPSSLSASVGDRVTITCRSSQSVRTNKLAWFQQKPGQPPKRLIYSASTLDFGVPSRFSGSGSGTEFTLTISSLQPEDFATYYCLGYFDCSIADCVAFGGGTKVEIK yielded kd of 0.0023
